assay-target: IRAK4 enzyme (Homo sapiens (Human))
Sequence (Q9NWZ3 whole entry): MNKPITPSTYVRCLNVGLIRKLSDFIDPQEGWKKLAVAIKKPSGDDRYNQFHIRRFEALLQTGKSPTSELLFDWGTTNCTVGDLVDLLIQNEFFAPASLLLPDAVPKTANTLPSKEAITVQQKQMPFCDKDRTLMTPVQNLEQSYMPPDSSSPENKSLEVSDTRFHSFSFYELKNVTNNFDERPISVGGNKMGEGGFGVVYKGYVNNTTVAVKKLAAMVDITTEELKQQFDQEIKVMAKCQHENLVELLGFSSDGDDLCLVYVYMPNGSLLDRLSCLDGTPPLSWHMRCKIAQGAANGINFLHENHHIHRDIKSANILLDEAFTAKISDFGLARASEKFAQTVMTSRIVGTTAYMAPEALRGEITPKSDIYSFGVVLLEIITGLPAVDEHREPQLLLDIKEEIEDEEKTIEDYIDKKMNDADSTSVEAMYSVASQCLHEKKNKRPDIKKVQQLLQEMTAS
run-description: IRAK4 Biochemical Assay (TR-FRET, STK1 KinEASE)
quantity-measured: IC50 (nM)
Give bare numbers, in nM.

Solved cases (4 shown):
>  <compound>
CC(=O)N[C@@H]1C[C@@H]2CC[C@H]1N2c1nnc(-c2cnc(-c3ccc4cc(C#N)cnn34)cc2NC(C)C)s1 [Example 141]

>  <recorded-measurement>
0.5

$$$$
>  <compound>
CC(=O)N1CCC(c2nnc(-c3cnc(-c4ccc5cc(C#N)cnn45)cc3NC(C)C)s2)CC1 [Example 128]

>  <recorded-measurement>
0.59

$$$$
>  <compound>
CC(C)Nc1cc(-c2ccc3cc(C#N)cnn23)ncc1-c1nnc(C(=O)N2CCC[C@H]2CN)s1 [Example 229]

>  <recorded-measurement>
0.64

$$$$
>  <compound>
CC(=O)NC12CCC(c3nnc(-c4cnc(-c5ccc6cc(C#N)cnn56)cc4NC(C)C)s3)(C1)C2 [Example 288]

>  <recorded-measurement>
0.72

$$$$

For every listed record, write down its IC50.
1. CC(C)Nc1cc(-c2ccc3cc(C#N)cnn23)ncc1-c1nnc(N2CCN3CCOC[C@@H]3C2)s1 [Example 35]
2. CC(=O)NC1CCC2(CC1)CN(c1nnc(-c3cnc(-c4ccc5cc(C#N)cnn45)cc3NC3CCOCC3)s1)C2 [Example 79]

## Result
1. 0.87
2. 0.48

Hi! Can you tell me IC50 for each of these compounds?
1. CC(C)Nc1cc(-c2ccc3cc(C#N)cnn23)ncc1-c1nnc(N2CC[C@H](O)C(F)(F)C2)s1 [Example 161]
2. CC(C)Nc1cc(-c2ccc3cc(C#N)cnn23)ncc1-c1nnc(N2CCS(=O)(=O)CC2)s1 [Compound 257]
3. CC(C)Nc1cc(-c2ccc3cc(C#N)cnn23)ncc1-c1nnc(N2CC[C@@](C)(O)[C@H](F)C2)s1 [Example 191]
4. CC(=O)N[C@@H]1CCCN(C(=O)c2nnc(-c3cnc(-c4ccc5cc(C#N)cnn45)cc3NC(C)C)s2)C1 [Example 49]
5. CNc1cc(-c2ccc3cc(C#N)cnn23)ncc1-c1nnc(N2CC[C@@H](NC(C)=O)C(F)(F)C2)s1 [Example 306]
6. CC1(Nc2cc(-c3ccc4cc(C#N)cnn34)ncc2-c2nnc(N3C[C@H]4CC[C@@H](C3)O4)s2)COC1 [Example 145]

## Result
1.48
0.95
1.15
1.75
1.21
0.33

Could you tell me IC50 for each of these compounds? They are listed below.
1. CC(C)Nc1cc(-c2ccc3cc(C#N)cnn23)ncc1-c1nnc(C(=O)N2CC[C@H](CO)C2)s1 [Example 221]
2. CC(=O)NC12CCC(c3nnc(-c4cnc(-c5ccc6cc(C#N)cnn56)cc4NC(C)C)s3)(CC1)C2 [Example 284]
3. CC(C)Nc1cc(-c2ccc3cc(C#N)cnn23)ncc1-c1nnc(C2CCNCC2)s1 [Example 129]

## Result
[0.92, 0.69, 0.59]

For every item in the list below, what is its measured IC50?
1. CC(C)Nc1cc(-c2ccc3cc(C#N)cnn23)ncc1-c1nnc(C(=O)N2CC[C@H](NC(=O)OC(C)(C)C)C2)s1 [Example 223]
2. CC(C)Nc1cc(-c2ccc3cc(C#N)cnn23)ncc1-c1nnc(N2C[C@H]3C[C@@H]2CO3)s1 [Compound 237]
3. CC(C)Nc1cc(-c2ccc3cc(C#N)cnn23)ncc1-c1nnc(N2CC3(CNC(=O)C3)C2)s1 [Example 163]
4. CC(C)Nc1cc(-c2ccc3cc(C#N)cnn23)ncc1-c1nnc(N2CCOC(F)(F)C2)s1 [Example 167]
5. CC(=O)NC1CCC(F)(c2nnc(-c3cnc(-c4ccc5cc(C#N)cnn45)cc3NC(C)C)s2)CC1 (stereo not drawn) [Example 194]
6. [2H]C([2H])([2H])C(O)(CCc1nnc(-c2cnc(-c3ccc4cc(C#N)cnn34)cc2NC(C)C)s1)C([2H])([2H])[2H] [Example 317]

## Result
1. 1.43
2. 0.14
3. 0.54
4. 1.81
5. 0.75
6. 0.6
